The values you see were collected from the kinase profiling compilation of Christmann-Franck et al. (2016).

The entries below are paired with their reported residual activity.
Biological target: UniProt:O15111
Sequence (O15111 whole entry, looked up): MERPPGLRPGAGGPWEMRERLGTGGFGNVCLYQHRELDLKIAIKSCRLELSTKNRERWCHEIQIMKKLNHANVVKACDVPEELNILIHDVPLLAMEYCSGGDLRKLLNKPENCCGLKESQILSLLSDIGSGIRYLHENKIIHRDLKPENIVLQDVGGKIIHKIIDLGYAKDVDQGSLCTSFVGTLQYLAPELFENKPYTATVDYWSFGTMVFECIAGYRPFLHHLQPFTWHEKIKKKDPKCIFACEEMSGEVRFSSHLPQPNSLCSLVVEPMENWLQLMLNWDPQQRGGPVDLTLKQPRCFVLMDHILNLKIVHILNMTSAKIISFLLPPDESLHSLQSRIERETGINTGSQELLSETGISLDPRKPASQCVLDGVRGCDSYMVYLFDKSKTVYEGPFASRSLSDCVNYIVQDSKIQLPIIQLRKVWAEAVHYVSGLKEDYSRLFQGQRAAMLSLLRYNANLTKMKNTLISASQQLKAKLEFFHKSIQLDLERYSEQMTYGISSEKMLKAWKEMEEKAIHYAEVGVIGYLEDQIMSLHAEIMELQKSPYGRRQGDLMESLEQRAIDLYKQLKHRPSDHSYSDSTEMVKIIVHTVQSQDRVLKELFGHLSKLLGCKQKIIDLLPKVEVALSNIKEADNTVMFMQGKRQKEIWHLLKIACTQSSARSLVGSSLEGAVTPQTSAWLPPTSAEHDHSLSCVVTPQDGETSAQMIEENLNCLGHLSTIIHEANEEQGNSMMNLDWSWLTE
Experiment: radiometric filter-binding kinase assay, Kinase HotSpot
Conditions: compound 0.5 µM; ATP 10 µM
Quick reminder: number only, in %, skip the unit.

INSERT INTO assay_data (compound, experimental_system, measurement_type, value_measured) VALUES
  ('O=C(Nc1ccc(Cl)cc1)c1ccccc1NCc1ccncc1', 'UniProt:O15111', 'residual activity', 104),
  ('Nc1nc(Nc2ccc(S(N)(=O)=O)cc2)nn1C(=S)Nc1c(F)cccc1F', 'UniProt:O15111', 'residual activity', 54.4),
  ('O=C1Nc2ccccc2/C1=C\c1c(Cl)[nH]c2ccccc12', 'UniProt:O15111', 'residual activity', 94.2);

Hello, please tell me recorded residual activity for this one: COc1ccc(-c2cnc3c(-c4ccsc4)cnn3c2)cc1
94.5

Hello, please tell me recorded residual activity for this one: CC(C)n1cnc2c(Nc3cccc(Cl)c3)nc(NCCO)nc21
96.1

Hello, please tell me recorded residual activity for this one: NC(=O)c1ccc(N(C(N)=O)c2c(F)cccc2F)nc1-c1ccc(F)cc1F
100

---

Molecular target: ROCK1 (human)
Test: radiometric filter-binding kinase assay, Kinase HotSpot
Details: compound 0.5 µM; ATP 10 µM
Measurement Type: residual activity (%)
Quick reminder: number only, in %, skip the unit.

Hello, please tell me recorded residual activity for this one: O=C1Nc2ccccc2/C1=C\c1c(Cl)[nH]c2ccccc12
101

Hello, please tell me recorded residual activity for this one: CCCNC(=O)Nc1ccc(Oc2ncnc3cc(OC)c(OC)cc23)cc1Cl
99.7

Hello, please tell me recorded residual activity for this one: O=C(Nc1ccc(Cl)cc1)c1ccccc1NCc1ccncc1
98.4

Hello, please tell me recorded residual activity for this one: O=C1Nc2cc(Br)ccc2/C1=C1/Nc2ccccc2/C1=N\O
99

---

Molecular target: RPS6KA4 KD2 (human)
Experiment: radiometric filter-binding kinase assay, Kinase HotSpot
Settings: compound 0.5 µM; ATP 10 µM
One threshold, 90%, splits the recorded residual activity values: lower ones are fulfilled, equal or higher ones are not fulfilled.

# example entries with known answers
INSERT INTO measurements (compound, experimental_system, class_name) VALUES
  ('COc1cc2ncnc(Nc3ccc(F)c(Cl)c3)c2cc1OCCCN1CCOCC1', 'RPS6KA4 KD2 (human)', 'not fulfilled'),
  ('CC(C)(C)c1nc2c3ccc(F)cc3c3c(=O)[nH]ccc3c2[nH]1', 'RPS6KA4 KD2 (human)', 'fulfilled'),
  ('O=C(NC(NC(=S)Nc1ccc(F)c([N+](=O)[O-])c1)C(Cl)(Cl)Cl)C(c1ccccc1)c1ccccc1 (stereo not given)', 'RPS6KA4 KD2 (human)', 'not fulfilled'),
  ('Nc1nc(Nc2ccc(S(N)(=O)=O)cc2)nn1C(=S)Nc1c(F)cccc1F', 'RPS6KA4 KD2 (human)', 'fulfilled');

# strict comparison: is reported residual activity < 90%? input = Oc1ccc(-c2nc(-c3ccc(F)cc3)c(-c3ccncc3)[nH]2)cc1
not fulfilled

# strict comparison: is reported residual activity < 90%? input = Clc1ccc(Nc2nnc(Cc3ccncc3)c3ccccc23)cc1
not fulfilled

# strict comparison: is reported residual activity < 90%? input = CCCNC(=O)Nc1ccc(Oc2ncnc3cc(OC)c(OC)cc23)cc1Cl
not fulfilled

# strict comparison: is reported residual activity < 90%? input = CS(=O)c1ccc(-c2nc(-c3ccc(F)cc3)c(-c3ccncc3)[nH]2)cc1 (stereo not given)
not fulfilled

# strict comparison: is reported residual activity < 90%? input = Cc1cc2ncc(-c3ccccc3)nc2cc1C
not fulfilled

# strict comparison: is reported residual activity < 90%? input = NC(=O)c1ccc(N(C(N)=O)c2c(F)cccc2F)nc1-c1ccc(F)cc1F
not fulfilled

# strict comparison: is reported residual activity < 90%? input = COc1cc2nccc(Oc3ccc(NC(=S)NC(=O)c4ccccc4C)cc3)c2cc1OC
not fulfilled

# strict comparison: is reported residual activity < 90%? input = Nc1n[nH]c2nnc(-c3c(-c4ccccc4)nn4ccccc34)cc12
not fulfilled

# strict comparison: is reported residual activity < 90%? input = Cc1ccc(NC(=O)c2ccc(CN3CCN(C)CC3)cc2)cc1Nc1nc(-c2cccnc2)cs1
not fulfilled

---

Target: FGFR1 (human) (UniProt P11362)
Sequence (P11362 whole entry, looked up): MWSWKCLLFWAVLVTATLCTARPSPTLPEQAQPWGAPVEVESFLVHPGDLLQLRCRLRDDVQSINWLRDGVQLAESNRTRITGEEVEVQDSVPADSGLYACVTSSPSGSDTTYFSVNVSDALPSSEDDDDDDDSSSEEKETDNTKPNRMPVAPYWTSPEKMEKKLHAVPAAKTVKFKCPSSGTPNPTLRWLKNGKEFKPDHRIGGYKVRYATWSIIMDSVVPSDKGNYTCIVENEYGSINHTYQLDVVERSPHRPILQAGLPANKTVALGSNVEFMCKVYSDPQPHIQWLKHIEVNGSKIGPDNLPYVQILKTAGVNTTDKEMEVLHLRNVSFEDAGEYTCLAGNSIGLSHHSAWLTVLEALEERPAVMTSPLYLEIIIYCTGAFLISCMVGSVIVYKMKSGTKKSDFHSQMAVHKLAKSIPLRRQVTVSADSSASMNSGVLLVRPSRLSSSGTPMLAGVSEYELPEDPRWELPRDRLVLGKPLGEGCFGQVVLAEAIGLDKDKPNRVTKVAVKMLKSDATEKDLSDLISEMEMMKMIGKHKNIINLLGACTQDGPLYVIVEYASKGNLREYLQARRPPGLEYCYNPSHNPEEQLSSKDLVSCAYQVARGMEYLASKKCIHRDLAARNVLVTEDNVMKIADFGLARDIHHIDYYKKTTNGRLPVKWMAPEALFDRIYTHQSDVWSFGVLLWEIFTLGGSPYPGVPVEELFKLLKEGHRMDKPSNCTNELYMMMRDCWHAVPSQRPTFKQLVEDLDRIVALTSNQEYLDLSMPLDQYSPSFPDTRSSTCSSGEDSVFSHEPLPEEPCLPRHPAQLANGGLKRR
Assay: radiometric filter-binding kinase assay, Kinase HotSpot
Conditions: compound 0.5 µM; ATP 10 µM
The entries below are paired with their reported residual activity.
Hi, when you answer, please include the unit after the number. Thanks!

Example cases with answers are listed next.
INSERT INTO results (molecule, experimental_system, value_measured) VALUES
  ('Cc1ccc(NC(=O)c2ccc(CN3CCN(C)CC3)cc2)cc1Nc1nc(-c2cccnc2)cs1', 'FGFR1 (human) (UniProt P11362)', '103%'),
  ('NC(=O)c1ccc(N(C(N)=O)c2c(F)cccc2F)nc1-c1ccc(F)cc1F', 'FGFR1 (human) (UniProt P11362)', '99%'),
  ('CS(=O)c1ccc(-c2nc(-c3ccc(F)cc3)c(-c3ccncc3)[nH]2)cc1 (stereo not drawn)', 'FGFR1 (human) (UniProt P11362)', '90.7%');

Hello, please tell me recorded residual activity for this one: O=C1Cc2c([nH]c3ccc([N+](=O)[O-])cc23)-c2ccccc2N1
88.6%

Hello, please tell me recorded residual activity for this one: Clc1ccc(Nc2nnc(Cc3ccncc3)c3ccccc23)cc1
97.2%

Hello, please tell me recorded residual activity for this one: Cc1cc2ncc(-c3ccccc3)nc2cc1C
91.9%

Hello, please tell me recorded residual activity for this one: Nc1nc(Nc2ccc(S(N)(=O)=O)cc2)nn1C(=S)Nc1c(F)cccc1F
6.59%

Hello, please tell me recorded residual activity for this one: O=C(Nc1ccc(Cl)cc1)c1ccccc1NCc1ccncc1
83.7%

Hello, please tell me recorded residual activity for this one: CC(C)(C)c1nc2c3ccc(F)cc3c3c(=O)[nH]ccc3c2[nH]1
75.8%

Hello, please tell me recorded residual activity for this one: CSc1nc(-c2ccc(F)cc2)c(-c2ccnc(NC(C)c3ccccc3)c2)[nH]1 (stereo not drawn)
97.6%

Hello, please tell me recorded residual activity for this one: CCCNC(=O)Nc1ccc(Oc2ncnc3cc(OC)c(OC)cc23)cc1Cl
75.4%

Hello, please tell me recorded residual activity for this one: CC(C)n1cnc2c(Nc3cccc(Cl)c3)nc(NCCO)nc21
84.2%

Hello, please tell me recorded residual activity for this one: COc1cc2ncnc(Nc3ccc(F)c(Cl)c3)c2cc1OCCCN1CCOCC1
96.4%

---

Molecular target: DYRK1B (human)
Test: radiometric filter-binding kinase assay, Kinase HotSpot
Conditions: compound 0.5 µM; ATP 10 µM
The entries below are paired with their reported residual activity.
Quick reminder: number only, in %, skip the unit.

INSERT INTO results (molecule, reading_unit, value_measured) VALUES
  ('COC(=O)[C@]1(O)C[C@@H]2O[C@@]1(C)n1c3ccccc3c3c4c(c5c6ccccc6n2c5c31)C(=O)NC4', '%', 3.88);

Hello, please tell me recorded residual activity for this one: O=c1cc(-c2cccc3c2Sc2ccccc2S3)oc(N2CCOCC2)c1
101

Hello, please tell me recorded residual activity for this one: O=C(Nc1ccc(Cl)cc1)c1ccccc1NCc1ccncc1
106

Hello, please tell me recorded residual activity for this one: CSc1nc(-c2ccc(F)cc2)c(-c2ccnc(NC(C)c3ccccc3)c2)[nH]1 (stereo not given)
84.6

Hello, please tell me recorded residual activity for this one: COc1ccc(-c2cnc3c(-c4ccsc4)cnn3c2)cc1
78.9

Hello, please tell me recorded residual activity for this one: C#Cc1cccc(Nc2ncnc3cc(OCCOC)c(OCCOC)cc23)c1
93.7

Hello, please tell me recorded residual activity for this one: CS(=O)c1ccc(-c2nc(-c3ccc(F)cc3)c(-c3ccncc3)[nH]2)cc1 (stereo not given)
104

Hello, please tell me recorded residual activity for this one: Nc1nc(Nc2ccc(S(N)(=O)=O)cc2)nn1C(=S)Nc1c(F)cccc1F
14.1

Hello, please tell me recorded residual activity for this one: O=C1Cc2c([nH]c3ccc([N+](=O)[O-])cc23)-c2ccccc2N1
87.5

Hello, please tell me recorded residual activity for this one: CCOc1nc(NC(=O)Cc2cc(OC)ccc2OC)cc(N)c1C#N
99.2

---

The entries below are paired with their reported residual activity.
Target: UniProt:P32298
Sequence (P32298 whole entry, looked up): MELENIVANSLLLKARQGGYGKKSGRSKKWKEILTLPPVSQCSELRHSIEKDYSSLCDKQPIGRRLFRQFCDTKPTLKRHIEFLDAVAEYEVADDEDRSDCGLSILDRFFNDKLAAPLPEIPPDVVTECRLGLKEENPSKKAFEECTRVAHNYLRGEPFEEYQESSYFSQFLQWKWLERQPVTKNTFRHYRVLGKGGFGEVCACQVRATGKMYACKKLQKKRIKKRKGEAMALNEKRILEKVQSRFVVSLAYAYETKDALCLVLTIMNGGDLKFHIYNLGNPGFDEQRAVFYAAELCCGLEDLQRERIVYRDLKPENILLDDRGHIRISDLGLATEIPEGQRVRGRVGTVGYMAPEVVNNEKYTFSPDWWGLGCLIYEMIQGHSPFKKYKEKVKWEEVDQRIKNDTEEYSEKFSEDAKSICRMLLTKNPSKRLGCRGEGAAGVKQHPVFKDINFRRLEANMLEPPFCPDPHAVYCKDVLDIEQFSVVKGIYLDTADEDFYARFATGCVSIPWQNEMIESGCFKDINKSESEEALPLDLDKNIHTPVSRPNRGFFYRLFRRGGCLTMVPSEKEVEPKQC
Assay: radiometric filter-binding kinase assay, Kinase HotSpot
Conditions: compound 0.5 µM; ATP 10 µM
Hi, when you answer, please include the unit after the number. Thanks!

Example cases with answers are listed next.
INSERT INTO measurements (molecule, value_measured) VALUES
  ('O=C(Nc1ccc(Cl)cc1)c1ccccc1NCc1ccncc1', '96.8%'),
  ('CC(C)(C)c1nc2c3ccc(F)cc3c3c(=O)[nH]ccc3c2[nH]1', '74.2%'),
  ('COc1cc2ncnc(Nc3ccc(F)c(Cl)c3)c2cc1OCCCN1CCOCC1', '91%'),
  ('NC(=O)c1ccc(N(C(N)=O)c2c(F)cccc2F)nc1-c1ccc(F)cc1F', '90.7%'),
  ('CC(C)[C@H](CO)Nc1nc(Nc2cccc(Cl)c2)c2ncn(C(C)C)c2n1', '91.1%');

Hello, please tell me recorded residual activity for this one: Cc1cc2ncc(-c3ccccc3)nc2cc1C
94.9%
